Data provenance is patent US20230058961A1.

- Test: in vitro
- Condition summary: human, CC50
Entries and their measured CC50 at 3 days follow.
Observable: CC50 at 3 days

Compound | Reported value
Cc1cc(-c2ccc(C(F)(F)F)cn2)[nH]c1C(=O)NC(C)(CN)c1nc(CO)cs1 (racemic) | > 68.3 µM
NCC(NC(=O)c1ccc(-c2ccc(C(F)(F)F)cn2)[nH]1)c1csc(C(=O)NCCO)n1 (stereo not shown) | > 107 µM
NCC(NC(=O)c1ccc(-c2ccc(C(F)(F)F)nn2)[nH]1)c1nc(CO)cs1 (stereo not shown) | > 73 µM
CC(C)(N)C(NC(=O)c1ccc(-c2ccc(C(F)(F)F)cn2)[nH]1)c1nc(CO)cs1 (stereo not shown) | 61 µM

====

- System: pseudovirus HIV-1 HXB2
- Test: organism not typed
- Assay type: cell-based
- Condition summary: anti-HIV-1 activity, single-cycle assay, TZM-bl cells, pseudovirus HIV-1 HXB2; read-out: IC50
pIC50: −log10 of the molar value.
Entries and their measured pIC50 follow.

Compound | Qualifier symbol | pIC50
Cc1cc(-c2ccc(Cl)cn2)[nH]c1C(=O)NC(CN)c1ncc(CO)s1 (centres unmarked) | = | 5.62
NCC(NC(=O)c1ccc(-c2ccc(Cl)nc2)[nH]1)c1nc(CO)cs1 (centres unmarked) [Compound 40] | < | 4.96
NCC(NC(=O)c1ccc(-c2ccc(F)cn2)[nH]1)c1nc(CO)cs1 (centres unmarked) [Compound 18] | < | 4.96
NCC(NC(=O)c1ccc(-c2ccc(Cl)nc2)[nH]1)c1nc(CO)cs1 (centres unmarked) [Compound 39] | < | 4.96
NCC(NC(=O)c1ccc(-c2ccc(Cl)cn2)[nH]1)c1cnc(CO)s1 (centres unmarked) [Compound 60] | = | 5.44
NCC(NC(=O)c1ccc(-c2ccc(C(F)(F)F)nc2)[nH]1)c1nc(CO)cs1 (centres unmarked) [Compound 42] | = | 4.92
Cc1cc(-c2ccc(C(F)(F)F)cn2)[nH]c1C(=O)NC(CN)c1csc(CO)n1 (centres unmarked) | = | 5.89
Cc1cc(-c2ccc(C(F)(F)F)cn2)[nH]c1C(=O)NC(CN)c1cnc(CO)s1 (centres unmarked) | = | 5.72

====

- Test: in vitro
- Condition summary: human, CC50, cytotoxicity, TZM-bl cells, MTS, 3 days

Molecule | CC50 at 3 days
CC(C)(N)C(NC(=O)c1ccc(-c2ccc(C(F)(F)F)cn2)[nH]1)c1nc(CO)cs1 (stereo not shown) [Compound 23] | < 50 µM
Cc1ccc(-c2ccc(C(=O)NC(CN)c3nc(CO)cs3)[nH]2)nc1 (stereo not shown) [Compound 19] | > 100 µM
NCC(NC(=O)c1ccc(-c2ccc(F)cn2)[nH]1)c1nc(CO)cs1 (stereo not shown) [Compound 17] | > 100 µM
NCC(NC(=O)c1ccc(-c2ccc(C(F)(F)F)nc2)[nH]1)c1nc(CO)cs1 (stereo not shown) [Compound 41] | > 100 µM
Cc1cc(-c2ccc(C(F)(F)F)cn2)[nH]c1C(=O)NC(c1ncc(CO)s1)C(C)(C)N (stereo not shown) [Compound 11] | < 50 µM
NCC(NC(=O)c1ccc(-c2ccc(Cl)cn2)[nH]1)c1ncc(CO)s1 (stereo not shown) [Compound 1] | > 100 µM
NCC(NC(=O)c1ccc(-c2ccc(Cl)nc2)[nH]1)c1nc(CO)cs1 (stereo not shown) [Compound 39] | > 100 µM
NCC(NC(=O)c1ccc(-c2ccc(C(F)(F)F)cn2)[nH]1)c1ncc(C(O)CO)s1 (stereo not shown) [Compound 13] | > 100 µM
NCC(NC(=O)c1ccc(-c2ccc(C(F)(F)F)cn2)[nH]1)c1nc(C(O)CO)cs1 (stereo not shown) [Compound 29] | > 100 µM
NCC(NC(=O)c1ccc(-c2ccc(Cl)cn2)[nH]1)c1nc(CO)cs1 (stereo not shown) [Compound 15] | > 100 µM

====

- System: pseudovirus HIV-1 HXB2
- Test: organism not typed
- Format: cell-based
- Condition summary: anti-HIV-1 activity, single-cycle assay, TZM-bl cells, pseudovirus HIV-1 HXB2; read-out: IC50
pIC50: −log10 of the molar value.
Entries and their measured pIC50 follow.
Observable: pIC50

Compound | Qualifier symbol | Reported value
Cc1cc(-c2ccc(C(F)(F)F)cn2)[nH]c1C(=O)NC(c1ncc(CO)s1)C(C)(C)N (centres unmarked) [Compound 11] | = | 6.22
NCC(NC(=O)c1ccc(-c2ncc(Cl)cn2)[nH]1)c1nc(CO)cs1 (centres unmarked) [Compound 45] | < | 4.80
CC(C)(N)C(NC(=O)c1ccc(-c2ccc(C(F)(F)F)cn2)[nH]1)c1nc(CO)cs1 (centres unmarked) [Compound 24] | = | 6.24
NCC(NC(=O)c1ccc(-c2ccc(C(F)(F)F)cn2)[nH]1)c1cnc(CO)s1 (centres unmarked) [Compound 58] | = | 5.68
COc1cc(-c2ccc(C(=O)NC(CN)c3nc(CO)cs3)[nH]2)ccn1 (centres unmarked) [Compound 47] | < | 4.96
NCC(NC(=O)c1ccc(-c2ncc(Cl)cn2)[nH]1)c1nc(CO)cs1 (centres unmarked) [Compound 46] | < | 4.80
Cc1ccc(-c2ccc(C(=O)NC(CN)c3nc(CO)cs3)[nH]2)nc1 (centres unmarked) [Compound 19] | = | 5.02
COc1cc(-c2ccc(C(=O)NC(CN)c3nc(CO)cs3)[nH]2)ccn1 (centres unmarked) [Compound 48] | < | 4.96
NCC(NC(=O)c1ccc(-c2ccc(C(F)(F)F)cn2)[nH]1)c1nc(CCO)cs1 (centres unmarked) [Compound 25] | = | 5.77
NCC(NC(=O)c1ccc(-c2ccc(C(F)(F)F)nc2)[nH]1)c1nc(CO)cs1 (centres unmarked) [Compound 41] | = | 4.90
CC(C)(N)C(NC(=O)c1ccc(-c2ccc(C(F)(F)F)cn2)[nH]1)c1ncc(CO)s1 (centres unmarked) [Compound 10] | = | 6.30
NCC(NC(=O)c1ccc(-c2ccc(F)cn2)[nH]1)c1nc(CO)cs1 (centres unmarked) [Compound 17] | < | 4.96
NCC(NC(=O)c1ccc(-c2ccc(Cl)cn2)[nH]1)c1ncc(CO)s1 (centres unmarked) [Compound 1] | = | 6.07
NCC(NC(=O)c1ccc(-c2ccc(C(F)(F)F)nn2)[nH]1)c1nc(CO)cs1 (centres unmarked) [Compound 43] | < | 4.92
NCC(NC(=O)c1ccc(-c2ccc(C(F)(F)F)cn2)[nH]1)c1ncc(CO)s1 (centres unmarked) [Compound 5] | = | 6.02
NCC(NC(=O)c1ccc(-c2ccc(C(F)(F)F)cn2)[nH]1)c1nc(CCCO)cs1 (centres unmarked) [Compound 27] | = | 5.64

====

Entries and their measured CC50 follow.
- Test system: TZM-bl cells
- Condition summary: human, 3 days

Compound | CC50
NCC(NC(=O)c1ccc(-c2ncc(Cl)cn2)[nH]1)c1nc(CO)cs1 (stereo not drawn) | > 66 µM
NCC(NC(=O)c1ccc(-c2ccc(C(F)(F)F)cn2)[nH]1)c1nc(CCO)cs1 (stereo not drawn) | 91 µM
NCC(NC(=O)c1ccc(-c2ccc(C(F)(F)F)nn2)[nH]1)c1nc(CO)cs1 (stereo not drawn) | > 73 µM
